Reference for the values: patent US6410792B1

- system: Rat NPY5 receptor (Rattus norvegicus, UniProt Q63634)
- Sequence (Q63634 whole entry): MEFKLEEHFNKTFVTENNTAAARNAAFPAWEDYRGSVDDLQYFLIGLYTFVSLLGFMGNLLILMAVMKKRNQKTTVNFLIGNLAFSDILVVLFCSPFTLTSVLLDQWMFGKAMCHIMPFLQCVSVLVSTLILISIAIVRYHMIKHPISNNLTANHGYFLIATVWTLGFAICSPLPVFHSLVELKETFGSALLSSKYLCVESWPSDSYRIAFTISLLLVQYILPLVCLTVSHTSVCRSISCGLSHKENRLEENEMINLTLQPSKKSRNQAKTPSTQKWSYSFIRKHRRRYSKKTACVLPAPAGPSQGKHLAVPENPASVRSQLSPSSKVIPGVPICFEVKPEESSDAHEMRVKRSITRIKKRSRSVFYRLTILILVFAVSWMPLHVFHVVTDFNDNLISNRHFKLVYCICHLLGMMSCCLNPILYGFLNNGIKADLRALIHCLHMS
- protocol.text: Rat NPY5 cyclase assay (in vitro functional assay, forskolin-stimulated adenylate cyclase, cAMP)
- Type: cell-based
- recorded.conditions: 20 min; 10 μM; percentage of forskolin-stimulated adenylate cyclase; read-out: rNPY5 % FSAC (10 μM)
Where a name gives a salt, the structure may show the parent alone.
property.label: activity at 10 µM (%)
Answer with a number only, understood to be in %.

As a guide, the following entries are already answered.
| compound | unit.text | activity at 10 µM |
| --- | --- | --- |
| CC(C)c1ccc(NC(=O)CN2CCC(n3c(=O)[nH]c4ccccc43)CC2)cc1 | % | 88 |
| CC(=O)c1ccc(NC(=O)CN2CCC(n3c(=O)[nH]c4ccccc43)CC2)cc1 [Compound 354, reference compound] | % | 98 |
| CCc1cc(Br)c(NC(=O)CN2CCC(n3c(=O)[nH]c4ccccc43)CC2)c(Br)c1 [Compound 330, reference compound] | % | 99 |
| CCCCCc1ccc(NC(=O)CN2CCC(n3c(=O)[nH]c4ccccc43)CC2)cc1 | % | 95 |
| O=C(CN1CCC(O)(Cc2ccccc2)CC1)Nc1ccc(C2CCCCC2)cc1 [Compound 314, hydrochloride] | % | 110 |
| O=C(CN1CCC(n2c(=O)[nH]c3ccccc32)CC1)Nc1ccc(C2CCCCC2)cc1 | % | 92 |
| O=C(CN1CCC(n2c(=O)[nH]c3ccccc32)CC1)Nc1ccc(O)cc1 [Compound 345, reference compound] | % | 93 |
| CCCc1ccc(NC(=O)CN2CCC(n3c(=O)[nH]c4ccccc43)CC2)cc1 | % | 99 |
| O=C(CN1CCC(n2c(=O)[nH]c3ccccc32)CC1)Nc1ccc(Br)c(Cl)c1 [Compound 342, reference compound] | % | 105 |
| O=C(CN1CCC(n2c(=O)[nH]c3ccccc32)CC1)Nc1ccc([N+](=O)[O-])c(Cl)c1 [Compound 357, reference compound] | % | 112 |

Name the recorded activity at 10 µM of the item Cc1ccc(C2(O)CCN(CC(=O)Nc3ccc(C4CCCCC4)cc3)CC2)cc1 [Compound 298, hydrochloride] in your answer.
103

Name the recorded activity at 10 µM of the item NC(=O)C1CCCN1CC(=O)Nc1ccc(C2CCCCC2)cc1 (stereo not drawn) [Compound 297, hydrochloride] in your answer.
103

Name the recorded activity at 10 µM of the item CC(=O)NCC1(c2ccccc2)CCN(CC(=O)Nc2ccc(C3CCCCC3)cc2)CC1.O=C(O)C(=O)O in your answer.
101

Name the recorded activity at 10 µM of the item O=C(CN1CCC(n2c(=O)[nH]c3ccccc32)CC1)Nc1ccc(-c2ccc(F)cc2)cc1 in your answer.
101

Name the recorded activity at 10 µM of the item CC(=O)NC1CCN(CC(=O)Nc2ccc(C3CCCCC3)cc2)C1 (stereo not drawn) in your answer.
101

###

- system: Human NPY5 receptor (Homo sapiens)
- Sequence (Q15761 whole entry): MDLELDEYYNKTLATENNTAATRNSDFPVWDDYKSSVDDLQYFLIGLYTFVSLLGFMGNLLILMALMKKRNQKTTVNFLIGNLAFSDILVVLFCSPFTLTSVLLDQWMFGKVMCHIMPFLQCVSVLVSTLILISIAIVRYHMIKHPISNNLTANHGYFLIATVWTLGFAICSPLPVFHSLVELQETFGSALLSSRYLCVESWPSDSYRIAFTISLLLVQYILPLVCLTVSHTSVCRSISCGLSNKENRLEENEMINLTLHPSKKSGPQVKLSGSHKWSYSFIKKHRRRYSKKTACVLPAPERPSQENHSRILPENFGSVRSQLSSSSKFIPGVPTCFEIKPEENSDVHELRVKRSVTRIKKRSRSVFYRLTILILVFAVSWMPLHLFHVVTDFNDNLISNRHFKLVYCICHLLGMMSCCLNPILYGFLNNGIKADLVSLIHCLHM
- protocol.text: Human NPY5 receptor binding assay ([125I]PYY, membrane protein)
- recorded.conditions: [125I]PYY binding, read-out: hNPY5 IC50
- Procedure: C. Human and Rat NPY5 Receptor Binding Assays Binding assays are performed on GF/C Millipore 96well plates pretreated with 0.02% polyethylenimine. The binding buffer is 25 mM Tris, 120 mM NaCl, 5 mM KCl, 1.2 mM KH2PO4, 2.5 mM CaCl2, 1.2 mM MgSO4, 0.1% BSA and 0.5 mg/ml bacitracin, pH 7.4. Samples consist of membrane protein, 75-100 pM [125I]PYY (porcine, NEN-DuPont) and drug dilution. […] The amount of radioactivity in each well is quantitated with either gamma counting or liquid scintillation.
property.label: pIC50
FYI, pIC50 means -log10 of a concentration in mol per litre.

As a guide, the following entries are already answered.
| compound | observed |
| --- | --- |
| CC(O)C1CCN(CC(=O)Nc2ccc(C3CCCCC3)cc2)CC1 (centres unmarked) | 6.19 |
| O=C(CNCC1CC1)Nc1ccc(C(=O)c2ccccc2)cc1 | 6.13 |
| CNC1CCN(CC(=O)Nc2ccc(C3CCCCC3)cc2)C1 (centres unmarked) [Compound 193] | 6.57 |
| NC(=O)C1(Nc2ccccc2)CCN(CC(=O)Nc2ccc(C(=O)c3ccccc3)cc2)CC1 | 5.92 |

Kindly review the next compound as well.
Name the recorded pIC50 of the item CNC1(C(N)=O)CCN(CC(=O)Nc2ccc(C(=O)c3ccccc3)cc2)CC1 in your answer.
8.30
